- Run description: Protein binding in plasma by dialysis method
- Type: ADME, cell-free
- Study conditions: read-out: PPB (converted)
Measurement label: fraction unbound
The reply should be a number, written without any unit.

> print(dat)
                                   compound  reported.result
1  O=C(c1ccc(-c2ccccc2)cc1)N1CCC(c2ncc[nH]2)CC1            0.001
2  O=C(c1ccc(-c2ccccc2)cc1)N1CCC(c2nc3ccccc3[nH]2)CC1            0.001
3      CC(C)c1cc(-c2ccc(F)c3ccccc23)nc(N)n1            0.001
4  O=C(c1cnc(-c2ccccc2)nc1)N1CCC(c2nc3ccccc3[nH]2)CC1            0.009

The compound listed as N#Cc1cc(CN2CCC(Nc3ncnc4sc(Cl)cc34)CC2)ccc1F [PRX-08066 FREE BASE] has a reported fraction unbound of 0.01

Source of measurements: ChEMBL document CHEMBL1138587
